Sourced from ChEMBL document CHEMBL3991601

Biological target: Proto-oncogene tyrosine-protein kinase Src (Homo sapiens); note: in the data inactive means no Kd found up to 30 µM
Sequence (P12931 2-536 limits assumed): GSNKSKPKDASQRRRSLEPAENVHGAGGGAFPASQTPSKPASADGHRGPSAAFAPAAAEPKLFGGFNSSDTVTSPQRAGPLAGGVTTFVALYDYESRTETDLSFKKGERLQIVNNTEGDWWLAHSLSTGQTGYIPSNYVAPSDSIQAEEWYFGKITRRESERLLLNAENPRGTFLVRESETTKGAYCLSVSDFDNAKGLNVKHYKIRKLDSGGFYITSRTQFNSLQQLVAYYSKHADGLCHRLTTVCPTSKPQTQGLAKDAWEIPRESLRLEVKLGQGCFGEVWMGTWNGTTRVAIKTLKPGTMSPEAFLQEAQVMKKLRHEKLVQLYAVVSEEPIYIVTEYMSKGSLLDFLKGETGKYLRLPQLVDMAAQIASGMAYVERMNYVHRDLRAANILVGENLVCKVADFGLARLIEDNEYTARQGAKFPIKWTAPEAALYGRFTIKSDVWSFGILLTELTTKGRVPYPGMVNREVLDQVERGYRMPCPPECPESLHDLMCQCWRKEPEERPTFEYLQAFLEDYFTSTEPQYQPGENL
Where a name gives a salt, the structure may show the parent alone. Active and inactive are the calls of the source.
Lab note: assign the record to one of active, inactive

Take a look at these entries with their results.
>  <COMPOUND>
C[C@@H](Oc1cc(C(=O)Nc2ccc(C(=O)N3CCN(C)CC3)cc2)nnc1N)c1c(Cl)ccc(F)c1Cl

>  <CAT>
inactive

$$$$
>  <COMPOUND>
CCNC(=O)C#Cc1ccc2c(c1)NC(=O)/C2=C(\Nc1ccc(CN(C)C)cc1)c1ccccc1

>  <CAT>
active

$$$$
>  <COMPOUND>
CCS(=O)(=O)N1CCN(c2ccc(Nc3ncc(C(N)=O)c(NC4CC4)n3)cc2)CC1 [Cerdulatinib Hydrochloride]

>  <CAT>
inactive

$$$$
>  <COMPOUND>
Cn1cnc2c(F)c(Nc3ccc(Br)cc3F)c(C(=O)NOCCO)cc21

>  <CAT>
inactive

$$$$
>  <COMPOUND>
Cc1cccc(-c2nn3c(c2-c2ccnc4ccc(C(N)=O)cc24)CCC3)n1

>  <CAT>
inactive

$$$$

Assay outcome for Cc1cc(Nc2ncc(Cl)c(Nc3ccccc3S(=O)(=O)C(C)C)n2)c(OC(C)C)cc1C1CCNCC1 : what was it?
inactive

Assay outcome for C[C@@H](N)c1ccc(C(=O)Nc2ccnc3[nH]ccc23)cc1 : what was it?
inactive

Assay outcome for CC(C)(C)c1nc(-c2cccc(NS(=O)(=O)c3c(F)cccc3F)c2F)c(-c2ccnc(N)n2)s1 : what was it?
inactive

Assay outcome for O=C(Nc1nc2cccc(-c3ccc(CN4CCS(=O)(=O)CC4)cc3)n2n1)C1CC1 : what was it?
inactive

Assay outcome for FC(F)(F)c1ccc(/C=C/c2nc(COc3ccc(CCCCn4ccnn4)cc3)co2)cc1 : what was it?
inactive

Assay outcome for Cn1cc(-c2cnn3c(N)c(Br)c([C@@H]4CCCNC4)nc23)cn1 : what was it?
inactive

----------
Molecular target: 5'-AMP-activated protein kinase catalytic subunit alpha-1 (Homo sapiens); note: in the data inactive means no Kd found up to 30 µM
Sequence (Q13131 whole entry): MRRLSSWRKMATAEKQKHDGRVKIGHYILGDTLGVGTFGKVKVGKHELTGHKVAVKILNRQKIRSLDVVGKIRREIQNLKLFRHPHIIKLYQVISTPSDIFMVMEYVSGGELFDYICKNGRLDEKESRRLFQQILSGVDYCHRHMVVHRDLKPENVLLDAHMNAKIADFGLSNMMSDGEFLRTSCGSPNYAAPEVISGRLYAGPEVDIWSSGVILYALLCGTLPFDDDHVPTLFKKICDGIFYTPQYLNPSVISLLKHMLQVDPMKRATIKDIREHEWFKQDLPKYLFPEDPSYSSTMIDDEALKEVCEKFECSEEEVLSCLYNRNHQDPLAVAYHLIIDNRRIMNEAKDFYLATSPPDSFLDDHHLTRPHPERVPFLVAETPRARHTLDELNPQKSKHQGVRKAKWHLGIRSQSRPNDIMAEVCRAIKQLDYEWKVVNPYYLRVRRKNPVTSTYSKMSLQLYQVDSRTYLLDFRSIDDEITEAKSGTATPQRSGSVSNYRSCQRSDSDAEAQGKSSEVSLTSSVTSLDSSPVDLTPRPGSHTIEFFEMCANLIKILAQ
Calls of active or inactive are those of the source.
Lab note: assign the record to one of active, inactive

>  <MOLECULE>
Cn1ncc(Cl)c1-c1cc(C(=O)N[C@H](CN)Cc2ccc(F)c(F)c2)oc1Cl

>  <CAT>
inactive

$$$$

Assay outcome for CCCCCCCCCCCCCCCCCCOP(=O)([O-])OC1CC[N+](C)(C)CC1 : what was it?
inactive

Assay outcome for O=C1NC(=O)[C@@H](c2cn3c4c(cccc24)CCC3)[C@@H]1c1c[nH]c2ccccc12 [TIVANTINIB] : what was it?
inactive

Assay outcome for Cc1nc(NC(=O)N2CCC[C@H]2C(N)=O)sc1-c1ccnc(C(C)(C)C(F)(F)F)c1 : what was it?
inactive

Assay outcome for Cc1nc2cc(-n3ncc(C(=O)c4cc5ccccc5[nH]4)c3N)ccc2[nH]1 : what was it?
inactive

----------
Target: Serine/threonine-protein kinase SIK3 (Homo sapiens); note: in the data inactive means no Kd found up to 30 µM
Sequence (Q9Y2K2 whole entry): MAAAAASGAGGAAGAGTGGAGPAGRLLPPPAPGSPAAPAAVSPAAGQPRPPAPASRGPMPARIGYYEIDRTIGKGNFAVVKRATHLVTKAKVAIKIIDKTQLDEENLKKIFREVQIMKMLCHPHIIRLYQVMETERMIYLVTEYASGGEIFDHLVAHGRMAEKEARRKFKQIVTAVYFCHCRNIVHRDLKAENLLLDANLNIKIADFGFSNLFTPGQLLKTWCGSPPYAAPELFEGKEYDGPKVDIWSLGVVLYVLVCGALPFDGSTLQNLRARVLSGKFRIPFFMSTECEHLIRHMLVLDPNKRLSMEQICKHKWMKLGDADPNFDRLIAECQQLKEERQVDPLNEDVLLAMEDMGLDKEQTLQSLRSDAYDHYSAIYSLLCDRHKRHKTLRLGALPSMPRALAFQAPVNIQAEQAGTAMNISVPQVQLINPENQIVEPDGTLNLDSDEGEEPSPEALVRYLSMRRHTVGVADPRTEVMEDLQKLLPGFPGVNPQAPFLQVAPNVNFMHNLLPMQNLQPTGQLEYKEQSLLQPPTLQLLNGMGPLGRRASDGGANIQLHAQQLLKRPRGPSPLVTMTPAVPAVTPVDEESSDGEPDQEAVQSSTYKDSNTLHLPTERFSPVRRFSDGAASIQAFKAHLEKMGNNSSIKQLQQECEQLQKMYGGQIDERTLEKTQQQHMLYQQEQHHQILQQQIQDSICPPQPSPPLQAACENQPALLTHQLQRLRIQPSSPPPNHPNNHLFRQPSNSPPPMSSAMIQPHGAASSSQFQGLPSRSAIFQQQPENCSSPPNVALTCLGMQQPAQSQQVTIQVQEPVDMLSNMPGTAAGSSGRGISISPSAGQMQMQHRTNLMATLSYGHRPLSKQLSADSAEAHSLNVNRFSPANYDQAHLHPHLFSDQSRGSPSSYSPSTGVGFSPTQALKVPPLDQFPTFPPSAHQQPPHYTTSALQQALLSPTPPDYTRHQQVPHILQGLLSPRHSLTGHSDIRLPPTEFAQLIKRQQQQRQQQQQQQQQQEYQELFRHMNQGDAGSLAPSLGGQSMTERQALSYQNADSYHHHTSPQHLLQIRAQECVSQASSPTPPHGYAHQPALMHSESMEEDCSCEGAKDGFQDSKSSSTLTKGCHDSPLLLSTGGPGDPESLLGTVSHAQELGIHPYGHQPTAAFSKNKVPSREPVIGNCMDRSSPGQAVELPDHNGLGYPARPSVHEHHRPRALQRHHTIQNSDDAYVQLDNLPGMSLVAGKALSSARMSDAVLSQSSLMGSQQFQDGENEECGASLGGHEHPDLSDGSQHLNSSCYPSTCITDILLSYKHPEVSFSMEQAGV
Calls of active or inactive are those of the source.
Lab note: assign the record to one of 1 for active, 0 for inactive

Take a look at these entries with their results.
>  <MOLECULE>
Cc1cc(C(=O)NOCCO)c(Nc2ccc(I)cc2F)n(C)c1=O

>  <CAT>
0

$$$$
>  <MOLECULE>
C=CC(=O)Nc1cc2c(Nc3ccc(F)c(Cl)c3)ncnc2cc1C#CC(C)(C)N1CCN(C)CC1 [AV-412 FREE BASE]

>  <CAT>
0

$$$$
>  <MOLECULE>
Cn1cc(-c2cnn3c(N)c(Br)c([C@@H]4CCCNC4)nc23)cn1

>  <CAT>
0

$$$$
>  <MOLECULE>
C[C@@H](N)c1ccc(C(=O)Nc2ccnc3[nH]ccc23)cc1

>  <CAT>
1

$$$$
>  <MOLECULE>
CC(=O)c1cnc2ccc(-c3cc(Cl)c(O)c(Cl)c3)nc2c1N[C@H]1CC[C@H](CN(C)C)CC1

>  <CAT>
1

$$$$
>  <MOLECULE>
CCS(=O)(=O)c1cccc(-c2cc(C(=O)NC3CCN(C)CC3)c(C)c3[nH]c4ncc(C)cc4c23)c1

>  <CAT>
0

$$$$
>  <MOLECULE>
Cc1nc2cc(-n3ncc(C(=O)c4cc5ccccc5[nH]4)c3N)ccc2[nH]1

>  <CAT>
0

$$$$
>  <MOLECULE>
Cc1cnc(NC(=O)Nc2cc(Br)c(C)cc2OC[C@@H]2CNCCO2)cn1

>  <CAT>
0

$$$$
>  <MOLECULE>
Cc1nc2cc(-c3nn(C(C)C)c4ncnc(N)c34)ccc2o1

>  <CAT>
0

$$$$
>  <MOLECULE>
O=C(Cc1ccc(-c2ccc(OCCN3CCOCC3)cc2)cn1)NCc1ccccc1

>  <CAT>
0

$$$$

Assay outcome for COc1ccc(S(=O)(=O)N(C(C)=O)c2ccccc2/C=C/c2cc[n+]([O-])cc2)cc1 : what was it?
0

Assay outcome for COc1cc2c(Nc3ccc(Cl)c(Cl)c3F)ncnc2cc1OC[C@@H]1C[C@@H]2CN(C)C[C@@H]2C1 : what was it?
0

Assay outcome for FC(F)(F)c1ccc(/C=C/c2nc(COc3ccc(CCCCn4ccnn4)cc3)co2)cc1 : what was it?
0

----------
Target: Serine/threonine-protein kinase 3 (Homo sapiens, UniProt Q13188); note: in the data inactive means no Kd found up to 30 µM
Sequence (Q13188 whole entry): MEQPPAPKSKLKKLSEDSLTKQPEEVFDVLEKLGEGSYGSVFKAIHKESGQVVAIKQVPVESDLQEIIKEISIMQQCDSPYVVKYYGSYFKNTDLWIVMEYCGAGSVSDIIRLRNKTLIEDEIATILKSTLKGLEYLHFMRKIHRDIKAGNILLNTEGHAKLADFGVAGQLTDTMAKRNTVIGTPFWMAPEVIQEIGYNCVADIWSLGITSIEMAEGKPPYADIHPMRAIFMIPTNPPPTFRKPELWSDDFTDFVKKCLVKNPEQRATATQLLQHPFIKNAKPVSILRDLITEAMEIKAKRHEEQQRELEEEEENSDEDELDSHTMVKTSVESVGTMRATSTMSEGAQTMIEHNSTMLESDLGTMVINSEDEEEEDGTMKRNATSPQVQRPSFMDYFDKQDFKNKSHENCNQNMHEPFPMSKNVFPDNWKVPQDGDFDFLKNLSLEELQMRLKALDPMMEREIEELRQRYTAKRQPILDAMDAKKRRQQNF
The source made the active and inactive calls.
Lab note: assign the record to one of TRUE for active, FALSE for inactive

Assay outcome for Cn1cnc2c(F)c(Nc3ccc(Br)cc3F)c(C(=O)NOCCO)cc21 : what was it?
FALSE

Assay outcome for Cn1cc(-c2cnc3ccc4ccc(CS(=O)(=O)NCc5ccccn5)cc4c(=O)c3c2)cn1 : what was it?
FALSE

Assay outcome for Cc1nc(NC(=O)N2CCC[C@H]2C(N)=O)sc1-c1ccnc(C(C)(C)C(F)(F)F)c1 : what was it?
FALSE

Assay outcome for CCS(=O)(=O)c1cccc(-c2cc(C(=O)NC3CCN(C)CC3)c(C)c3[nH]c4ncc(C)cc4c23)c1 : what was it?
TRUE

Assay outcome for COc1cc2ncnc(Oc3cccc(NC(=O)Nc4cc(C(C)(C)C(F)(F)F)on4)c3)c2cc1OC : what was it?
FALSE

Assay outcome for COc1ccc(S(=O)(=O)N(C(C)=O)c2ccccc2/C=C/c2cc[n+]([O-])cc2)cc1 : what was it?
FALSE

Assay outcome for CCn1c(C(=O)N(C2CC2)C2CC2)cc2c3c(ncn3C)c(Nc3cc(C)n(C)n3)nc21 : what was it?
FALSE

Assay outcome for O=C(Cc1ccc(-c2ccc(OCCN3CCOCC3)cc2)cn1)NCc1ccccc1 : what was it?
FALSE

----------
Target: Tyrosine-protein kinase Lck (Homo sapiens, UniProt P06239); note: in the data inactive means no Kd found up to 30 µM
Sequence (P06239 whole entry): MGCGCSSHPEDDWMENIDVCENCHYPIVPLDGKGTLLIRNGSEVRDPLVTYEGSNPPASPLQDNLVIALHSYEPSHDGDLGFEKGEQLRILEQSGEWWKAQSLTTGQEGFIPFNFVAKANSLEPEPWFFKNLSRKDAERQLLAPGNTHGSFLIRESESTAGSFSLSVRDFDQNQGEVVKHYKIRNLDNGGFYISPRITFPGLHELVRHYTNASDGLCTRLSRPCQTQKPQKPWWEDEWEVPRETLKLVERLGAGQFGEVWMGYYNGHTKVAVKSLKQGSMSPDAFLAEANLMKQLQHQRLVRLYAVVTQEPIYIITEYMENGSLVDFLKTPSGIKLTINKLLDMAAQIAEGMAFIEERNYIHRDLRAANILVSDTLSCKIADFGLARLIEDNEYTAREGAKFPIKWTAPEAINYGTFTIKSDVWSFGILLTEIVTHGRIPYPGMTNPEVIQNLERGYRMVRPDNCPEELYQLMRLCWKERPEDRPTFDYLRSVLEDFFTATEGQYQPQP
Activity calls are given as the source filed them.
Lab note: assign the record to one of active, inactive

Take a look at these entries with their results.
>  <COMPOUND>
Cn1cc(-c2cnn3c(N)c(Br)c([C@@H]4CCCNC4)nc23)cn1 [SCH-900776]

>  <CAT>
inactive

$$$$
>  <COMPOUND>
O=C1NC(=O)[C@@H](c2cn3c4c(cccc24)CCC3)[C@@H]1c1c[nH]c2ccccc12 [TIVANTINIB]

>  <CAT>
inactive

$$$$
>  <COMPOUND>
Cc1nc(Nc2n[nH]c3c2CN(C(=O)N[C@H](CN(C)C)c2ccccc2)C3(C)C)c2sccc2n1 [PF-03758309]

>  <CAT>
inactive

$$$$
>  <COMPOUND>
N#CC1(c2ccc(NC(=O)c3cccnc3NCc3ccncc3)cc2)CCCC1 [RIVOCERANIB]

>  <CAT>
inactive

$$$$
>  <COMPOUND>
Cc1cc(Nc2ncc(Cl)c(Nc3ccccc3S(=O)(=O)C(C)C)n2)c(OC(C)C)cc1C1CCNCC1 [CERITINIB]

>  <CAT>
inactive

$$$$

Assay outcome for COc1ncc(-c2ccc3nccc(-c4ccnnc4)c3c2)cc1NS(=O)(=O)c1ccc(F)cc1F [OMIPALISIB] : what was it?
inactive

Assay outcome for Cc1cc(Nc2ncnc3ccc(NC4=NC(C)(C)CO4)cc23)ccc1Oc1ccn2ncnc2c1 [TUCATINIB] : what was it?
inactive

Assay outcome for C#Cc1cccc(Nc2ncnc3cc(OC)c(OCCCCCCC(=O)NO)cc23)c1 [CUDC-101] : what was it?
inactive

Assay outcome for COCc1c(-c2ccc(NC(=O)Nc3cc(C(F)(F)F)ccc3F)c(F)c2)c2c(N)ncnn2c1CN1CCOCC1 : what was it?
inactive

Assay outcome for CCS(=O)(=O)c1cccc(-c2cc(C(=O)NC3CCN(C)CC3)c(C)c3[nH]c4ncc(C)cc4c23)c1 [TAK-901] : what was it?
active

Assay outcome for CO[C@H]1C[C@@H]2CC[C@@H](C)[C@@](O)(O2)C(=O)C(=O)N2CCCC[C@H]2C(=O)O[C@H]([C@H](C)C[C@@H]2CC[C@@H](OP(C)(C)=O)[C@H](OC)C2)CC(=O)[C@H](C)/C=C(\C)[C@@H](O)[C@@H](OC)C(=O)[C@H](C)C[C@H](C)/C=C/C=C/C=C/1C [RIDAFOROLIMUS] : what was it?
inactive

Assay outcome for COc1ccc(S(=O)(=O)N(C(C)=O)c2ccccc2/C=C/c2cc[n+]([O-])cc2)cc1 [HMN-214] : what was it?
inactive
